Hi there, I'd appreciate the recorded Stokes shift for every entry that follows.
procedure_details: Solution state photophysical studies (absorption, emission, lifetime) in DMSO
Type: physicochemical
conditions: in DMSO at RT
Answers are plain numbers, in nm.

Consider the reported Stokes shift for these compounds:
compound: COc1ccc(-c2cccc3c4ccc(C)cc4cc(-c4ccccc4)[n+]23)cc1.O=S(=O)([O-])C(F)(F)F [2r]
observation_type: Stokes shift
unit_annotation: nm
readout_number: 133

compound: COc1ccc(-c2cccc3c4cc(C)ccc4cc(-c4ccccc4)[n+]23)cc1.O=S(=O)([O-])C(F)(F)F [2m]
observation_type: Stokes shift
unit_annotation: nm
readout_number: 131

compound: O=S(=O)([O-])C(F)(F)F.c1ccc(-c2cc3ccccc3c3cccc(-c4cc5ccccc5c5ccccc45)[n+]23)cc1 [2j]
observation_type: Stokes shift
unit_annotation: nm
readout_number: 147

compound: COc1ccc(-c2cccc3c4cc(C)cc(C)c4cc(-c4ccccc4)[n+]23)cc1.O=S(=O)([O-])C(F)(F)F [2t]
observation_type: Stokes shift
unit_annotation: nm
readout_number: 132

compound: COc1ccc(-c2cccc3c4ccccc4cc(-c4cc(OC)cc(OC)c4)[n+]23)cc1.O=S(=O)([O-])C(F)(F)F [2y]
observation_type: Stokes shift
unit_annotation: nm
readout_number: 139

Hi, could you look up Stokes shift for each item in my list?
1. COc1ccc(-c2cccc3c4ccccc4cc(-c4ccccc4)[n+]23)cc1.O=S(=O)([O-])C(F)(F)F [2f]
2. O=S(=O)([O-])C(F)(F)F.c1ccc(-c2cccc3c4ccccc4cc(-c4ccccc4)[n+]23)cc1 [2a]
3. COc1ccc(-c2cccc3c4ccccc4cc(-c4cccc5ccccc45)[n+]23)cc1.O=S(=O)([O-])C(F)(F)F [2aa]

1: 136; 2: 116; 3: 143
